B1: TPR 5TU (parent)
chain: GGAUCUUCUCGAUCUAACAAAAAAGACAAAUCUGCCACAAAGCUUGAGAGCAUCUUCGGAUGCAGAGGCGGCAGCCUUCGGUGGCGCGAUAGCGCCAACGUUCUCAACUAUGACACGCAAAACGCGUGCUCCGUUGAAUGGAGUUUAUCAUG

- Variants of: B1
- measurementProtocol: polymerase ribozyme fitness, log enrichment relative to wild type (log ratio); higher = more active; in vitro selection for triplet polymerase activity
Variants at the floor of the assay were thinned out.
Would you mind telling me the reported polymerase ribozyme fitness (log ratio) of each entry?

# input Any idea what its polymerase ribozyme fitness (log ratio) is? The variant is G42A G59A U102G
# output ≤ -4.2

# input Any idea what its polymerase ribozyme fitness (log ratio) is? The variant is U78A C95G U127C U130G U139G
# output ≤ -4.2

# input Any idea what its polymerase ribozyme fitness (log ratio) is? The variant is C85A C93U A119C G126U U127A
# output ≤ -4.2

# input Any idea what its polymerase ribozyme fitness (log ratio) is? The variant is G42C G62U A64C G71A C79G C132G U139G U146G
# output ≤ -4.2

# input Any idea what its polymerase ribozyme fitness (log ratio) is? The variant is A20C A49U A60C
# output -3.14

# input Any idea what its polymerase ribozyme fitness (log ratio) is? The variant is G70A G74A U101G U104C A147U
# output ≤ -4.2

# input Any idea what its polymerase ribozyme fitness (log ratio) is? The variant is U7G U53A A147G
# output ≤ -4.2

# input Any idea what its polymerase ribozyme fitness (log ratio) is? The variant is U56G G68U G81A G84A A91C U135C
# output ≤ -4.2

# input Any idea what its polymerase ribozyme fitness (log ratio) is? The variant is A41U G83A
# output -0.754

# input Any idea what its polymerase ribozyme fitness (log ratio) is? The variant is A17U C38A U53A G74A C95U
# output ≤ -4.2

# input Any idea what its polymerase ribozyme fitness (log ratio) is? The variant is C93A U104G
# output -2.89

# input Any idea what its polymerase ribozyme fitness (log ratio) is? The variant is A17G G50C
# output -2.81

# input Any idea what its polymerase ribozyme fitness (log ratio) is? The variant is U13A G46U G59A A91G C95U G117A
# output ≤ -4.2
